- target entity: Acyl-protein thioesterase 1 (Homo sapiens) (UniProt O75608)
- Sequence (O75608 whole entry, looked up): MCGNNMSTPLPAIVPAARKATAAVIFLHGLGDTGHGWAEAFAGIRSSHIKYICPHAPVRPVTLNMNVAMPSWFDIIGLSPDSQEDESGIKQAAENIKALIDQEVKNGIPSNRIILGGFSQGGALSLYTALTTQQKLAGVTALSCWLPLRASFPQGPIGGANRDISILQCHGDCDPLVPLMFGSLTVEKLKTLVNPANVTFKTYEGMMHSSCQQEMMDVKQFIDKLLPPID
- assay details: selectivity of LYPLA1/LYPLA2 inhibition – cell lysate, gel-based ABPP, fluorescence, HEK293T proteome, powder samples, selectivity assay for LYPLA1/LYPLA2 inhibitor project, late-stage follow-up (AID 651988)
- setup conditions: HEK293T soluble proteome, FP-PEG-Rh fluorescence, LYPLA1, at 10 µM
Calls of active or inactive are those of the source.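 The calls were made as follows: active = inhibition of 50% or more at 300 nM in exactly one of the two enzyme panels, LYPLA1 or LYPLA2; inactive = under 50% in both panels, or reaching 50% in both.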
Possible outcomes: active, inactive

molecule	class name
O=C(c1cc2c(s1)-c1ccc(Cl)cc1S(=O)(=O)C2)N1CCN(C2CCCCC2)CC1	inactive
O=C(CN1CCN(C(=O)c2ccccc2)CC1)Nc1cc(S(=O)(=O)N2CCCC2)ccc1Cl	inactive
O=C(c1cc2c(s1)-c1ccc(Cl)cc1S(=O)(=O)C2)N1CCN(c2ncccn2)CC1	inactive
O=C(c1cc2c(s1)-c1ccccc1S(=O)(=O)C2)N1CCN(Cc2ccccc2)CC1	inactive
O=C(CN1CCN(C(=O)c2ccco2)CC1)Nc1ccc(Cl)cc1Cl	inactive
COc1ccccc1N1CCN(C(=O)c2cc3c(s2)-c2ccccc2S(=O)(=O)C3)CC1	inactive
O=C(CN1CCN(C(=O)c2ccco2)CC1)Nc1cc(Cl)ccc1Cl	active
O=C(c1ccco1)N1CCN(C(=S)Nc2cccc([N+](=O)[O-])c2)CC1	inactive
O=C(c1cc2c(s1)-c1ccc(Cl)cc1S(=O)(=O)C2)N1CCN(c2ccccn2)CC1	inactive
CCOC(=O)N1CCN(C(=O)c2cc3c(s2)-c2ccc(Cl)cc2S(=O)(=O)C3)CC1	inactive
O=C(c1ccco1)N1CCN(C(=S)Nc2ccc(F)c(Cl)c2)CC1	inactive
O=C(CN1CCN(C(=O)c2ccco2)CC1)Nc1cc(C(F)(F)F)ccc1Cl	active
COc1ccc(N2CCN(C(=O)c3ccc(C(C)(C)C)cc3)CC2)cc1	inactive
O=C(c1cc2c(s1)-c1ccccc1S(=O)(=O)C2)N1CCN(c2ccccc2)CC1	inactive
CC1CCc2c(sc(NC(=O)CN3CCN(C(=O)c4ccco4)CC3)c2C#N)C1 (stereo unspecified)	inactive
O=C(c1cc2c(s1)-c1ccccc1S(=O)(=O)C2)N1CCN(c2ccc(Cl)cc2)CC1	inactive
O=C(CN1CCN(C(=O)c2ccco2)CC1)Nc1ccc(Br)cc1Cl	inactive
O=C(c1cc2c(s1)-c1ccccc1S(=O)(=O)C2)N1CCN(C2CCCCC2)CC1	inactive
COc1ccc(N2CCN(C(=O)c3cc4c(s3)-c3ccccc3S(=O)(=O)C4)CC2)cc1	inactive
Cc1nnsc1C(=O)N1CCCC(N2CCN(c3cccc(C(F)(F)F)c3)CC2)C1 (stereo unspecified)	inactive
O=C(CN1CCN(C(=O)c2ccco2)CC1)Nc1cccc(Cl)c1Cl	inactive
O=C(Nc1ccc(N2CCN(C(=O)c3ccco3)CC2)c(Cl)c1)c1c(F)c(F)c(F)c(F)c1F	inactive
O=C(c1cc2c(s1)-c1ccccc1S(=O)(=O)C2)N1CCN(c2cccc(Cl)c2)CC1	inactive
COc1ccc(N2CCN(C(=O)c3cc4c(s3)CCCCC4)CC2)cc1	inactive
CC(C(=O)Nc1cccc(C(F)(F)F)c1)N1CCN(C(=O)c2ccco2)CC1 (stereo unspecified)	inactive
O=C(COc1ccc(Cl)cc1)N1CCN(c2cccc(C(F)(F)F)c2)CC1	inactive
